Values were extracted from patent US7355063B2.

Assay: Test of scavenging DPPH radical (Test Example 9, microplate reader, 540 nm)
Settings: final concentration of 25 μg/mL; 20 minutes, room temperature
Protocol: […] 100 μl of 800 μM DPPH ethanol solution was added to 80 μl of 100 mM Tris-HCl buffer (pH 7.4) and 20 μl of an ethanol solution of the compound 36 (final concentration of 25 μg/mL), followed by sufficient stirring. After the resulting mixture was allowed to stand in a dark place at room temperature for 20 minutes, the absorbance at 540 nm was measured on a microplate reader (absorbance of the test solution). […]
PROPERTY: DPPH radical-scavenging ratio (%)
Answers are plain numbers, in %.

Here is how some compounds turned out for DPPH radical-scavenging ratio (%).
Cc1c(C)c2c(c(C)c1O)CCC(C)(CCCC(C)CCCC(C)CCCC(C)C)O2 (racemic) [Tocopherol, dl-α-tocopherol]	14.9
COC(=O)CCCCCCC(CC(=O)CCc1ccc(O)c(OC)c1)OC (stereo not drawn) [Compound 36]	31.7
COc1cc(CCC(O)CC(CCCCCCO)OC)ccc1O (stereo not drawn) [Compound 48]	33.5
COc1cc(CCC(O)/C=C/CCCCCCC(=O)O)ccc1O (stereo not drawn) [Compound 37]	37.6

# per-item lookup of DPPH radical-scavenging ratio (%); items listed below
1. COc1cc(CCC(O)CCCCCCCCC(=O)O)ccc1O (stereo not drawn) [Compound 39]
2. COc1cc(CCC(=O)CCCCCCCCCO)ccc1O [Compound 46]

1: 33.8; 2: 39.4
